Test: NCI Yeast Anticancer Drug Screen. Data for the rad50 strain (AID 155);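 further: 0% = growth of vehicle-only cultures of the same strain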
Conditions: S. cerevisiae rad50 strain growth inhibition; at 50.0 µM; stronger effect = higher value
Protocol: Growth inhibition of yeast strains with defined genetic alterations is measured as a screen for potential anti-cancer activity. Selected strains with alterations in DNA damage repair or cell cycle control were exposed to compounds and growth inhibition was measured relative to vehicle treated controls. The strain used in this assay is rad50
The panel holds about 79,000 compounds, 15% with a hit somewhere; the sample as a whole holds those more often.
Listing of recorded growth inhibition by entry.
Please respond with the number in % and leave the unit unwritten.

For orientation, consider the following solved cases.
[[record]]
compound = "CC(=O)O[C@H]1CCC2[C@@H]3CC[C@]4(C)CC(=O)C=C[C@]4(C)C3CC[C@@]21C (stereo partly specified)"
recorded_endpoint = "growth inhibition"
readout_units = "%"
val = 84.7

[[record]]
compound = "CC1CN(C2CCCCC2)CO1 (stereo unspecified)"
recorded_endpoint = "growth inhibition"
readout_units = "%"
val = -0.6

[[record]]
compound = "CC(C)CCC(=O)c1ccoc1"
recorded_endpoint = "growth inhibition"
readout_units = "%"
val = -2.45

[[record]]
compound = "C#CCOC(C(=O)OC1CCN(C)CC1)(c1ccccc1)c1ccccc1"
recorded_endpoint = "growth inhibition"
readout_units = "%"
val = -3.5


Given item O=C(O)C(CSC(c1ccccc1)c1ccccc1)NC(=O)C(c1ccccc1)c1ccccc1 (stereo unspecified) , the value recorded as its growth inhibition is 52.5

Given item NC1=NC(=O)N2CC12 (stereo unspecified) , the value recorded as its growth inhibition is 48.5

Source: PubChem BioAssay (NCI)
